- system: T1, TSHR260-alkaline phosphatase (TSHR260-AP) (human, UniProt P05187 23-511)
- T1 construct: Fusion of human TSHR amino acids 22-260 (construct codes 1-260, 1-21 being the leader) with secreted alkaline phosphatase, expressed in insect cells; In the ELISA the antibody bridges full length detergent-solubilised TSHR coated on the wells and TSHR260-AP in the liquid phase
- method-notes: TSHR260-AP bridge ELISA, full length TSHR on wells; 10 µg/mL, diluted in assay buffer
observation-type: Mean absorbance at 405 nm (absorbance at 405 nm)
// units = absorbance at 405 nm; emit number, no label

K1-18 IgG (antibody, V domains shown, Human IgG1 kappa purified from hetero-hybridoma supernatant) VH: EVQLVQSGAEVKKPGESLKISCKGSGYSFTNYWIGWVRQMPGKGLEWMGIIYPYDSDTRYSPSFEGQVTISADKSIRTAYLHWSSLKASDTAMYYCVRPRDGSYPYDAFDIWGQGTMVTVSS VL: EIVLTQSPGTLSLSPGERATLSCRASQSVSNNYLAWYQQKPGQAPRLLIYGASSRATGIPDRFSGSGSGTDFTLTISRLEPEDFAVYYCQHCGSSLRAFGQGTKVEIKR ... 0.8
K1-70 Fab (Fab, V domains shown, residue limits as in claims 56 and 57) VH: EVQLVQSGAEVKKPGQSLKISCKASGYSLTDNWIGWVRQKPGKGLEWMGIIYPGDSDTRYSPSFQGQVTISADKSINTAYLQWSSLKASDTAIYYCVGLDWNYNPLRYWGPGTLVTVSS VL: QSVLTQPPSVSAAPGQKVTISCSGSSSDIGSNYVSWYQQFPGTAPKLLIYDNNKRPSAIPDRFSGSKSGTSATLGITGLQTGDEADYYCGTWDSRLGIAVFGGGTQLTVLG ... 0.033
K1-70 IgG (antibody, V domains shown, Human IgG1 lambda purified from hetero-hybridoma supernatant) VH: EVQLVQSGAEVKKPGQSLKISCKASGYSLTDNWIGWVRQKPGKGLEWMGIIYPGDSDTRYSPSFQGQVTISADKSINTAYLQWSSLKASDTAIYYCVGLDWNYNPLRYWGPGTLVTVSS VL: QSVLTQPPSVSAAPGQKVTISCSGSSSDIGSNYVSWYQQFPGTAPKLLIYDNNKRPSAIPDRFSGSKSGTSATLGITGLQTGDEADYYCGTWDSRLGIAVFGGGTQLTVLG ... 0.885

With those in mind, consider the next binder.
Input line: Using the record for K1-18 Fab (Fab, V domains shown, residue limits as in claim 65) VH: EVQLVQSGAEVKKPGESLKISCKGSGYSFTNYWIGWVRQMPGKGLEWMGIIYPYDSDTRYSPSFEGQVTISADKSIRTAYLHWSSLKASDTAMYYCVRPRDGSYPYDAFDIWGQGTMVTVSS VL: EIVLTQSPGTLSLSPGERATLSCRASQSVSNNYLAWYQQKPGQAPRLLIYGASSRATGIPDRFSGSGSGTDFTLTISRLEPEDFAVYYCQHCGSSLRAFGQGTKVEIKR , report its Mean absorbance at 405 nm.
Output line: 0.008
